List of melting point values.
attribute_measured: melting point

CCc1cccc(C)c1CNc1cc(Cn2ccnc2)cn2nc(C)nc12 = 158 °C
COc1ccc(OCCc2c[nH]cn2)cc1 = 178 to 181 °C
CCOc1ccc(-c2ccc3c(c2)C=C(C(=O)OC)CCS3(=O)=O)cc1 = 173 to 175 °C
O[C@H]1c2cc(Oc3ccc4ccccc4n3)ccc2OC[C@H]1Oc1cccnc1 (relative stereo) = 112 to 114 °C
CCOC(=O)c1c(C(F)(F)F)nc(C(F)(F)Cl)c(C(=O)OC)c1OCC = 37.5 to 39.5 °C
O=C(N[C@@H](Cc1ccc(-c2c(O)cccc2O)cc1)C(=O)O)c1c(Cl)cccc1Cl = 238 °C
CCc1cnc2n1N=C(c1ccc(N)cc1)c1cc3c(cc1C2)OCO3 = 258 to 260 °C
Cc1ccccc1CC(=O)Nc1cc(C)c(S(=O)(=O)C[N+](=O)[O-])c(C)c1 = 188 to 190 °C
OCc1ccc(-c2ccc(CO)cc2)cc1 = 195 to 197 °C
